B1: Ventral anterior homeobox 1, residues 102 to 157; numbered along this chain, Q5SQQ9 (parent)
chain: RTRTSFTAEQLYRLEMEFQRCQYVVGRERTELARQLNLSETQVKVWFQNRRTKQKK

# Variants of: B1
# protocolText: abundance fitness (aPCA) (normalised: wild type 0, dead -1); higher = more abundant; growth selection in yeast, the domain comes from the species named
# particulars: Homo sapiens
What abundance fitness was measured for each of the following?

QUERY: Could you please provide reported abundance fitness for "L36S" ? Thanks!
RESULT: -0.687

QUERY: Could you please provide reported abundance fitness for "V45H" ? Thanks!
RESULT: -0.021

QUERY: Could you please provide reported abundance fitness for "G26S" ? Thanks!
RESULT: -0.151

QUERY: Could you please provide reported abundance fitness for "K53S" ? Thanks!
RESULT: 0.161

QUERY: Could you please provide reported abundance fitness for "A8L" ? Thanks!
RESULT: -0.14

QUERY: Could you please provide reported abundance fitness for "F47G" ? Thanks!
RESULT: -0.976

QUERY: Could you please provide reported abundance fitness for "E31H" ? Thanks!
RESULT: -0.468

QUERY: Could you please provide reported abundance fitness for "Y12T" ? Thanks!
RESULT: 0.018

QUERY: Could you please provide reported abundance fitness for "G26L" ? Thanks!
RESULT: -0.297

QUERY: Could you please provide reported abundance fitness for "F6W" ? Thanks!
RESULT: -0.052

QUERY: Could you please provide reported abundance fitness for "T7K" ? Thanks!
RESULT: -0.589

QUERY: Could you please provide reported abundance fitness for "Q54W" ? Thanks!
RESULT: -0.187

QUERY: Could you please provide reported abundance fitness for "N49L" ? Thanks!
RESULT: -0.046

QUERY: Could you please provide reported abundance fitness for "R50T" ? Thanks!
RESULT: -0.392

QUERY: Could you please provide reported abundance fitness for "T2Q" ? Thanks!
RESULT: 0.135

QUERY: Could you please provide reported abundance fitness for "V25C" ? Thanks!
RESULT: 0.114

QUERY: Could you please provide reported abundance fitness for "T30D" ? Thanks!
RESULT: -0.468

QUERY: Could you please provide reported abundance fitness for "K44H" ? Thanks!
RESULT: -0.26

QUERY: Could you please provide reported abundance fitness for "R27Q" ? Thanks!
RESULT: 0.009

QUERY: Could you please provide reported abundance fitness for "K55A" ? Thanks!
RESULT: 0.086

QUERY: Could you please provide reported abundance fitness for "M16I" ? Thanks!
RESULT: -0.295

QUERY: Could you please provide reported abundance fitness for "F6A" ? Thanks!
RESULT: -0.616
